Cited source for all entries: the supplement of paper PMC7877785

experiment: self-splicing fitness, log relative to wild type (ln ratio); higher = more splicing; Tetrahymena group I intron in knt gene, E. coli kanamycin selection, DiMSum; sequences stand for … in CUCUCU…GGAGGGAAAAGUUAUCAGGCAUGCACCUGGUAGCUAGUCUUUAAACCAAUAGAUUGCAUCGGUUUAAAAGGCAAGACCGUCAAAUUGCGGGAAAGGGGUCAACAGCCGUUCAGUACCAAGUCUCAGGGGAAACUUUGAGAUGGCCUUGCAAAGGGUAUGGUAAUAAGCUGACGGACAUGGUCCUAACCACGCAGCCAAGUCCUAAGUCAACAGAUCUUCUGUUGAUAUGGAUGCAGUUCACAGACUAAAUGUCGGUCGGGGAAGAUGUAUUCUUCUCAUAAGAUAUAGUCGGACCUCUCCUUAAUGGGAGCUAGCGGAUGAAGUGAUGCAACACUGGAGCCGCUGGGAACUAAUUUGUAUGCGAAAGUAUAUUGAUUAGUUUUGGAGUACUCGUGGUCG; conditions: 37 °C;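 further: selection with 25 µg/mL kanamycin versus none on LB agar overnight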
resultType: self-splicing fitness (ln)
Form rule: numeric answer, no unit written next to it.

Consider the worked cases shown below.
{"biosequence": "AUUGAGCAAUAUUACGAUUC", "self-splicing fitness (ln)": -2.86}
{"biosequence": "GUGUAGCAAUAUUACGACUU", "self-splicing fitness (ln)": -0.00223}
{"biosequence": "UUAUAGCAAUAUUACGAACA", "self-splicing fitness (ln)": -0.83}
{"biosequence": "GAGUAGCAAUAUUACGGUAU", "self-splicing fitness (ln)": -2.22}
{"biosequence": "CCAAAGCAAUAUUACGAUCA", "self-splicing fitness (ln)": -3.1}
{"biosequence": "UACCAGCAAUAUUACGGACG", "self-splicing fitness (ln)": 0.479}
{"biosequence": "GCCGAGCAAUAUUACGUAUG", "self-splicing fitness (ln)": -3.11}

Continue with the next sequence.
Look at this sequence and give its reported self-splicing fitness (ln). `UAUUAGCAAUAUUACGUCAU` -2.81

* * *

assay: self-splicing fitness, log relative to wild type (ln ratio); higher = more splicing; Tetrahymena group I intron in knt gene, E. coli kanamycin selection, DiMSum; sequences stand for … in CUCUCU…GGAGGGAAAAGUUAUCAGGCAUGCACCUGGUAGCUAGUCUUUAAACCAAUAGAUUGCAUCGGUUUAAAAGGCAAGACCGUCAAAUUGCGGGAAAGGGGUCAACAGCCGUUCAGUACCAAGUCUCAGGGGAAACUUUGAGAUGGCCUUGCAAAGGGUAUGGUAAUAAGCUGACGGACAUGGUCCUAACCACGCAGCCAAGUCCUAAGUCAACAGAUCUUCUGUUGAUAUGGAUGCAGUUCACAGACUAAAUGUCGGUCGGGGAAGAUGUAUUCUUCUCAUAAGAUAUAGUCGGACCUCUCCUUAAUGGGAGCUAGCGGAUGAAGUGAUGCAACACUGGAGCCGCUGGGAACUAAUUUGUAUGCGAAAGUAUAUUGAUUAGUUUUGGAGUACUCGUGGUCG; settings: 30 °C
Given measured self-splicing fitness (ln), output y if it is greater than or equal to -3 and n if not.

{"biosequence": "CGUCAGCAAUAUUACGCAUG", "groupLabel": "y"}
{"biosequence": "AUUCAGCAAUAUUACGCGAA", "groupLabel": "y"}
{"biosequence": "GCUCAGCAAUAUUACGUCGC", "groupLabel": "y"}
{"biosequence": "GCAGAGCAAUAUUACGAAGU", "groupLabel": "y"}
{"biosequence": "CCGAAGCAAUAUUACGAAAC", "groupLabel": "n"}
{"biosequence": "GUUGAGCAAUAUUACGACGU", "groupLabel": "y"}
{"biosequence": "CCACAGCAAUAUUACGUUCU", "groupLabel": "y"}
{"biosequence": "UCCCAGCAAUAUUACGGGUU", "groupLabel": "y"}
{"biosequence": "AGCAAGCAAUAUUACGUAUC", "groupLabel": "n"}
{"biosequence": "CGGGAGCAAUAUUACGCUAU", "groupLabel": "n"}

Exam item: decide whether the reported self-splicing fitness (ln) for `UACAAGCAAUAUUACGUGAU` is at least -3. n

Exam item: decide whether the reported self-splicing fitness (ln) for `UAGGAGCAAUAUUACGUCUG` is at least -3. y

Exam item: decide whether the reported self-splicing fitness (ln) for `CAAGAGCAAUAUUACGACCC` is at least -3. y

Exam item: decide whether the reported self-splicing fitness (ln) for `UUGAAGCAAUAUUACGAACC` is at least -3. y

Exam item: decide whether the reported self-splicing fitness (ln) for `GAACAGCAAUAUUACGACAU` is at least -3. y

Exam item: decide whether the reported self-splicing fitness (ln) for `UACAAGCAAUAUUACGCCAG` is at least -3. y

* * *

test: self-splicing fitness, log relative to wild type (ln ratio); higher = more splicing; Tetrahymena group I intron in knt gene, E. coli kanamycin selection, DiMSum; sequences stand for … in CUCUCU…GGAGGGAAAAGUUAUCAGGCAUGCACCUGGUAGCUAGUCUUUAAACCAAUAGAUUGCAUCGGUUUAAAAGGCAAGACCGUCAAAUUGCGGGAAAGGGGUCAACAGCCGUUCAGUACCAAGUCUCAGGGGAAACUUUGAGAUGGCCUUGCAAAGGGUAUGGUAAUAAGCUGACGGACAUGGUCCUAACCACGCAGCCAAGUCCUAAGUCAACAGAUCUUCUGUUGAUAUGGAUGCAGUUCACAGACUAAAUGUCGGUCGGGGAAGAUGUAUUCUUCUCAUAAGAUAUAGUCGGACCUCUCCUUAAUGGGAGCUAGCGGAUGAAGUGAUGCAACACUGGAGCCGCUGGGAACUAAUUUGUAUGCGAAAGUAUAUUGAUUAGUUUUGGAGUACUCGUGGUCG; conditions: 30 °C
resultType: self-splicing fitness (ln)
Form rule: numeric answer, no unit written next to it.

{"biosequence": "GGUGAGCAAUAUUACGUACC", "self-splicing fitness (ln)": -3.31}
{"biosequence": "AGUCAGCAAUAUUACGUCCU", "self-splicing fitness (ln)": -0.258}
{"biosequence": "CCCAAGCAAUAUUACGCGUG", "self-splicing fitness (ln)": -3.31}
{"biosequence": "AGUUAGCAAUAUUACGGAAG", "self-splicing fitness (ln)": -3.57}

Look at this sequence and give its reported self-splicing fitness (ln). `CAUCAGCAAUAUUACGACUU` -1.85

Look at this sequence and give its reported self-splicing fitness (ln). `UGAUAGCAAUAUUACGUACC` -1.76

Look at this sequence and give its reported self-splicing fitness (ln). `UCCAAGCAAUAUUACGAUGU` -1.37

Look at this sequence and give its reported self-splicing fitness (ln). `UAGAAGCAAUAUUACGUAUG` -1.01

Look at this sequence and give its reported self-splicing fitness (ln). `AGCUAGCAAUAUUACGGGCA` -0.728

Look at this sequence and give its reported self-splicing fitness (ln). `CACAAGCAAUAUUACGCGGA` -3.17

Look at this sequence and give its reported self-splicing fitness (ln). `ACUAAGCAAUAUUACGUCAC` -3.64

Look at this sequence and give its reported self-splicing fitness (ln). `AAAAAGCAAUAUUACGCGGA` -1.95

Look at this sequence and give its reported self-splicing fitness (ln). `ACAGAGCAAUAUUACGCAUU` -4.18

Look at this sequence and give its reported self-splicing fitness (ln). `AUAAAGCAAUAUUACGAAGU` -1.82

Look at this sequence and give its reported self-splicing fitness (ln). `GAGCAGCAAUAUUACGGCUU` -4.43

Look at this sequence and give its reported self-splicing fitness (ln). `CACCAGCAAUAUUACGGUGG` -2.71

Look at this sequence and give its reported self-splicing fitness (ln). `CGUGAGCAAUAUUACGACGG` -0.058

Look at this sequence and give its reported self-splicing fitness (ln). `AAGAAGCAAUAUUACGUGAG` -1.35

* * *

Some sequences, each annotated with its measured self-splicing fitness (ln).
assay: self-splicing fitness, log relative to wild type (ln ratio); higher = more splicing; Tetrahymena group I intron in knt gene, E. coli kanamycin selection, DiMSum; sequences stand for … in CUCUCU…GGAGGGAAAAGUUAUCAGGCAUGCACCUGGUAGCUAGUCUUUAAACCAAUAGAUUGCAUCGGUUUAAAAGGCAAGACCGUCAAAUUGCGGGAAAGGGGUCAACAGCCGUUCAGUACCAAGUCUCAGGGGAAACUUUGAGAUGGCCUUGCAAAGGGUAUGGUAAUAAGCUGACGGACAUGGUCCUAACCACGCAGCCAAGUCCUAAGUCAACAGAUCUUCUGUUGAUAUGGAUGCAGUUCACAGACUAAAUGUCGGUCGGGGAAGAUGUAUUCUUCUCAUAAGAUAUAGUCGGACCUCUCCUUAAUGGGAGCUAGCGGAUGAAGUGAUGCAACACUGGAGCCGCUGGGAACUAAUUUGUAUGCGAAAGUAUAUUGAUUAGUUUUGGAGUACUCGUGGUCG; details: 37 °C
Form rule: numeric answer, no unit written next to it.

Consider the worked cases shown below.
{"biosequence": "GGUCAGCAAUAUUACGACUG", "resultNumber": -0.586}
{"biosequence": "CGACAGCAAUAUUACGAUCC", "resultNumber": -0.196}
{"biosequence": "CACCAGCAAUAUUACGGGCC", "resultNumber": -1.73}
{"biosequence": "AUUAAGCAAUAUUACGAUGA", "resultNumber": -0.613}
{"biosequence": "AAUAAGCAAUAUUACGGUAA", "resultNumber": -1.03}
{"biosequence": "GAGAAGCAAUAUUACGGGAU", "resultNumber": -2.58}

Look at this sequence and give its reported self-splicing fitness (ln). `UCAAAGCAAUAUUACGGCUA` -1.31

Look at this sequence and give its reported self-splicing fitness (ln). `GGCGAGCAAUAUUACGAGUA` -1.99

Look at this sequence and give its reported self-splicing fitness (ln). `AACUAGCAAUAUUACGUGAA` -1.51
